Taken from BindingDB's records for doi:10.7270/Q23B5XKP.

Biological target: Solute carrier family 12 member 5 (Homo sapiens, UniProt Q9H2X9)
Sequence (Q9H2X9 whole entry): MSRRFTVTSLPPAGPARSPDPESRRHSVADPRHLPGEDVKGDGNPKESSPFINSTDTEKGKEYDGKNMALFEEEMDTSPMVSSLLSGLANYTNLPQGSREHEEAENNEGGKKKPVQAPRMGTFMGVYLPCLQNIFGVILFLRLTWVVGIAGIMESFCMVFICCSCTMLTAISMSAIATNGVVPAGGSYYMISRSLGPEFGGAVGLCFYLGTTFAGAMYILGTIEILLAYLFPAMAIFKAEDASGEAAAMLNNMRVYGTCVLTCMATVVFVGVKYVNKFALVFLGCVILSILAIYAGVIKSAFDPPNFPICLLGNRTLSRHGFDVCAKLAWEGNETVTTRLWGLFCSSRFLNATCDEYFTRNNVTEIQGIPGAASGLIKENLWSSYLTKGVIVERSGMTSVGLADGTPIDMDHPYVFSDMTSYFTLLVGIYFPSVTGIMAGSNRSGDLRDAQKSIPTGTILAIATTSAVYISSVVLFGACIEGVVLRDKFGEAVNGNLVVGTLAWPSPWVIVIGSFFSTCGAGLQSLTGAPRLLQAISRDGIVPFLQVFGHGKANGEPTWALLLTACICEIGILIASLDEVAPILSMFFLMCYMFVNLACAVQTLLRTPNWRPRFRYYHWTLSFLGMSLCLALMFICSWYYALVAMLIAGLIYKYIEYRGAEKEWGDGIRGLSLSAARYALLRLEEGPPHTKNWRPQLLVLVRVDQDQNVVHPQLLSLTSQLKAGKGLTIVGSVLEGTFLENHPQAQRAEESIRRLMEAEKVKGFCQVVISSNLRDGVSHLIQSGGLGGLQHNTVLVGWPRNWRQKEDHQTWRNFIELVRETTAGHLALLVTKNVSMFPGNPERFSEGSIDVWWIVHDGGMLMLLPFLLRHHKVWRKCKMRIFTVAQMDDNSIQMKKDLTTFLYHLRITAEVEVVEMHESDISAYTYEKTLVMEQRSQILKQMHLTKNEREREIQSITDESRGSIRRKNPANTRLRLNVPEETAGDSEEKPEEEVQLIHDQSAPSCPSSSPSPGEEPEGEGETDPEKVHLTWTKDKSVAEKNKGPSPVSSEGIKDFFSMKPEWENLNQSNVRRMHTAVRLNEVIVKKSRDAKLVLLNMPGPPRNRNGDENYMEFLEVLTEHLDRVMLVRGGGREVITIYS
Assay: modulation of KCC2 K-Cl transport – cell-based, assay 2, dose response (AID 1723)
Conditions: inactive by the depositor's call
pEC50: −log10 of the molar value.
MEASURE: pEC50

- COc1ccccc1N1CCN(C(=S)NC(=O)/C=C/c2ccccc2)CC1: 5.87

a. Cc1ccc(-c2n[nH]c(=S)n2NC=CCc2ccccc2[N+](=O)[O-])cc1
b. O=C(NC(=S)Nc1cccc2cccnc12)c1cccs1
Please indicate which entry, a or b , has the lower recorded pEC50 value. Please identify the chosen entry by its label.
a
